Source listed as patent EP1087973B1.

Biological target: human A1 adenosine Receptor (Homo sapiens)
Sequence (P30542 1-326): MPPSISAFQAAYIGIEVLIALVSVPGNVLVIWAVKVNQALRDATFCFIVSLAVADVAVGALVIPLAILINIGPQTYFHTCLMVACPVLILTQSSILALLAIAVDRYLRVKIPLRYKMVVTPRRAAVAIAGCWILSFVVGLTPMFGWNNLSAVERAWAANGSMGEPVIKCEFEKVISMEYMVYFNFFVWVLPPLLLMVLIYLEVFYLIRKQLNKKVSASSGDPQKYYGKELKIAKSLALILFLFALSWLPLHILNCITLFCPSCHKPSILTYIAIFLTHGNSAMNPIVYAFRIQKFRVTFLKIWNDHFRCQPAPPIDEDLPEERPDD

[
  {
    "itemSmiles": "CCn1c(=O)c2[nH]c(C(C)(C)C)nc2n2nc(Cc3ccc(O)cc3)nc12",
    "Ki": "6 nM"
  },
  {
    "itemSmiles": "CCn1c(=O)c2[nH]c(C3CCCC3)nc2n2nc(Cn3cccc3)nc12",
    "Ki": "2.6 nM"
  },
  {
    "itemSmiles": "CCn1c(=O)c2[nH]c(C(C)(C)C)nc2n2nc(Cc3ccc(OC)cc3)nc12",
    "Ki": "2.1 nM"
  },
  {
    "itemSmiles": "CCCc1nc2c([nH]1)c(=O)n(CC)c1nc(CCc3ccccc3)nn21",
    "Ki": "8.1 nM"
  }
]

* * *

Target: human A3-adenosine receptor (Homo sapiens, UniProt P0DMS8)
Sequence (P0DMS8 1-318): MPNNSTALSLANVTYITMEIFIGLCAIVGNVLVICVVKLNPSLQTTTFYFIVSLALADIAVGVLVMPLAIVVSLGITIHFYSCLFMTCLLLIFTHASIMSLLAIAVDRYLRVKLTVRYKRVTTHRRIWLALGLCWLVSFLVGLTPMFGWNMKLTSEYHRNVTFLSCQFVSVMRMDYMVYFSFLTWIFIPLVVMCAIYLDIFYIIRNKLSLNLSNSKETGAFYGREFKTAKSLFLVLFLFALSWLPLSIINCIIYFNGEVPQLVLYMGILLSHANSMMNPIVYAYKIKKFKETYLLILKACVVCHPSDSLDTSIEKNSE
# Ki values compiled below

[
  {
    "itemSmiles": "CCn1c(=O)c2[nH]c(C)nc2n2nc(CCc3ccccc3)nc12",
    "Ki": "7.2 nM"
  },
  {
    "itemSmiles": "CCCc1nc2c([nH]1)c(=O)n(CCC)c1nc(C3CCCC3)nn21",
    "Ki": "5.6 nM"
  },
  {
    "itemSmiles": "CCCn1c(=O)c2[nH]c(C)nc2n2nc(-c3ccco3)nc12",
    "Ki": "2.2 nM"
  }
]
